Mean (OD600) by entry:
# Test system: bacterial organisms present in patient urine sample
# Experimental Protocol: Antibiotic Resistance (ABR) assay utilizing liquid growth medium
# Assay type: cell-based
# Reported Conditions: antibiotic 16 μg/mL; liquid medium
// print number alone

Which Mean (OD600) value is on record for CN[C@H](CC(C)C)C(=O)N[C@H]1C(=O)N[C@@H](CC(N)=O)C(=O)N[C@H]2C(=O)N[C@H]3C(=O)N[C@H](C(=O)N[C@H](C(=O)O)c4cc(O)cc(O)c4-c4cc3ccc4O)[C@H](O)c3ccc(c(Cl)c3)Oc3cc2cc(c3O[C@@H]2O[C@H](CO)[C@@H](O)[C@H](O)[C@H]2O[C@H]2C[C@](C)(N)[C@H](O)[C@H](C)O2)Oc2ccc(cc2Cl)[C@H]1O ?
0.0431

Which Mean (OD600) value is on record for CC1(C)S[C@@H]2[C@H](NC(=O)[C@H](N)c3ccccc3)C(=O)N2[C@H]1C(=O)O ?
0.0419

Which Mean (OD600) value is on record for Cc1nnc(SCC2=C(C(=O)O)N3C(=O)[C@@H](NC(=O)Cn4cnnn4)[C@H]3SC2)s1 ?
0.1468

Which Mean (OD600) value is on record for CO/N=C(\C(=O)N[C@@H]1C(=O)N2C(C(=O)[O-])=C(C[N+]3(C)CCCC3)CS[C@H]12)c1csc(N)n1 [Cefepime, cefepime] ?
0.2323

Which Mean (OD600) value is on record for CC(C)(O/N=C(\C(=O)N[C@@H]1C(=O)N2C(C(=O)[O-])=C(C[n+]3ccccc3)CS[C@H]12)c1csc(N)n1)C(=O)O ?
0.2473

Which Mean (OD600) value is on record for CN(C)[C@@H]1C(O)=C(C(N)=O)C(=O)[C@@]2(O)C(O)=C3C(=O)c4c(O)cccc4[C@@](C)(O)[C@H]3C[C@@H]12 ?
0.0539
